# Test system: CP291
# procedureText: qHTS profiling for inhibitors of Plasmodium falciparum proliferation (AID 504749); note: nearly all actives have a fitted effect of over 60% in size; note: potency is the fitted concentration of half-maximal effect
# assayConditions: P. falciparum in erythrocytes, SYBR Green DNA, 72 h; series mostly up to 28.7 µM
Records with an inconclusive call do not appear. Calls of active or inactive are those of the source. Calls come from the whole dose curve; as a rule, active = well fitted inhibition curve with a large enough effect; inconclusive = small, poorly fitted or top-dose-only effect; inactive = flat fitted curve, though single readings scatter.
assayReadout: Potency

Solved cases (5 shown):
{"compound": "CO[C@H]1C[C@@H]2CC[C@@H](C)[C@@](O)(O2)C(=O)C(=O)N2CCCC[C@H]2C(=O)O[C@H]([C@H](C)C[C@@H]2CC[C@@H](O)[C@H](OC)C2)CC(=O)[C@H](C)/C=C(\\C)[C@@H](O)[C@@H](OC)C(=O)[C@H](C)C[C@H](C)/C=C/C=C/C=C/1C", "testedOn": "CP291", "result": "4.26 µM (active)"}
{"compound": "COC1CC2CCC(C)[C@](O)(O2)C(=O)C(=O)N2CCCCC2C(=O)OC(C(C)CC2CCC(O)C(OC)C2)CC(=O)C(C)/C=C(/C)C(O)C(OC)C(=O)C(C)CC(C)C=CC=C/C=C\\1C (some centres undefined)", "testedOn": "CP291", "result": "4.78 µM (active)"}
{"compound": "CC1OC(OCC2OC(Oc3c(-c4ccc(OCCO)c(OCCO)c4)oc4cc(OCCO)cc(O)c4c3=O)C(O)C(O)C2O)[C@@H](O)C(O)C1O (some centres undefined)", "testedOn": "CP291", "result": "inactive"}
{"compound": "NC(=O)OC[C@@H]1[C@H](NC(=O)/C(=N/OCC(=O)O)c2csc(N)n2)C(=O)N1S(=O)(=O)O", "testedOn": "CP291", "result": "inactive"}
{"compound": "NC(C(=O)O)c1ccc(O)cc1 (centres undefined)", "testedOn": "CP291", "result": "inactive"}

[ask] Query (compound): CCC(C(=O)O)C1OC(C(C)C(O)C(C)C(=O)C(CC)C2OC3(C=CC(O)C4(CCC(C)(C5CCC(O)(CC)C(C)O5)O4)O3)C(C)CC2C)C(C)CC1C (centres undefined) ; field requested: Potency
[reply] 0.0601 µM (active)

[ask] Also need C#C[C@]1(O)CC[C@H]2[C@H]3[C@H](CC[C@@]21C)C1=C(CC(=O)CC1)C[C@@H]3C , thanks.
[reply] inactive

[ask] Also need CCOc1ccccc1O[C@@H](c1ccccc1)[C@@H]1CNCCO1 , thanks.
[reply] inactive

[ask] Also need C[C@@H]1CC2[C@@H]3C[C@H](F)C4=CC(=O)C(Cl)=C[C@]4(C)[C@@]3(F)[C@H](O)C[C@]2(C)[C@@]1(O)C(=O)CO (some centres undefined) , thanks.
[reply] inactive

[ask] Also need O=C1[C@@H]2C[C@@H]3C[C@H]1C[C@@](O)(C3)C2 , thanks.
[reply] inactive
